- tested.target: human histamine H3 receptor (Homo sapiens, UniProt Q9Y5N1)
- Sequence (Q9Y5N1 whole entry): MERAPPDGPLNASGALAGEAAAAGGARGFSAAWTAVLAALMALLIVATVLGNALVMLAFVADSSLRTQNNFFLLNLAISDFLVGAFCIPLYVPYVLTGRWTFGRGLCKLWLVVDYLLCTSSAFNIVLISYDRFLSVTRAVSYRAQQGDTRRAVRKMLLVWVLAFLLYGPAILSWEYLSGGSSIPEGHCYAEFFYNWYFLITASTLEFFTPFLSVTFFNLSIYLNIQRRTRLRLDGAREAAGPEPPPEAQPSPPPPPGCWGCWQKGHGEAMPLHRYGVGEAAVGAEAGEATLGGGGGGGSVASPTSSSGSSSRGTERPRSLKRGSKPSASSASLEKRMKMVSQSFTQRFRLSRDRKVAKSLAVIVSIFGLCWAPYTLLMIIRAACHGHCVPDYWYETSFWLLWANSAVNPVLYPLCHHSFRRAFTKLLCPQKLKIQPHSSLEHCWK
- assay.overview: H3 GTPγS assay (SPA method), histamine H3 in vitro assay
- assay.setup: GTPγ[35S] binding to membranes of cells expressing human H3; antagonist mode with R-γ-Me-Histamine at EC80 (30 nM); in one embodiment HCl salts tested; read-out: Potency (functional potency as indicated by IC50)
Each entry below lists one item and its recorded IC50 value.

Consider the reported IC50 for these molecules:
[[record]]
molecule = "Cc1cn2cc(-c3ccc4c(c3)nc3n4CCN(C4CCC4)CC3)ccc2n1"
tested_target = "human histamine H3 receptor (Homo sapiens, UniProt Q9Y5N1)"
result_type = "IC50"
observed = "≤ 0.01 µM"

[[record]]
molecule = "c1cc2c(nc3n2CCN(C2CCC2)CC3)c2c1CNCC2"
tested_target = "human histamine H3 receptor (Homo sapiens, UniProt Q9Y5N1)"
result_type = "IC50"
observed = "≤ 1 µM"


For `NCc1ccc(-c2cnc3c(c2)nc2n3CCN(C3CCC3)CC2)cc1` the molecule record lists IC50 as ≤ 0.1 µM

For `c1cc(-c2ccc3c(c2)nc2n3CCN(C3CCC3)CC2)cnn1` the molecule record lists IC50 as ≤ 0.1 µM

For `Cc1nc2ccc(F)cc2n1-c1ccc2c(c1)nc1n2CCN(C2CCC2)CC1` the molecule record lists IC50 as ≤ 0.01 µM

For `CN1CCN(C(=O)c2ccc3c(c2)nc2n3CCN(C3CCC3)CC2)CC1` the molecule record lists IC50 as ≤ 1 µM
